EXPERIMENT_DESCRIPTION: Spectrophotometric pH-metric titrations of Ga^3+:ligand systems (stability constants, pGa, speciation)
Type: physicochemical
PROTOCOL_CONDITIONS: [Ga^3+]total = 1 μM, [L]total = 10 μM, pH 7.4, 25 °C
Please note: label 1 applies when pGa (−log[Ga^3+]free) is 20 or greater, and label 0 applies otherwise.

Worked set:
COc1cc(/C=C/C(=O)C(CCC(=O)O)C(=O)/C=C/c2ccc(O)c(OC)c2)ccc1O [Compound 7]
label 0
COc1cc(/C=C/C(O)=C/C(C)=O)ccc1OCCCBr [Compound 2]
label 0
COc1cc(/C=C/C(=O)C(CCCN2C(=O)c3ccccc3C2=O)C(=O)/C=C/c2ccc(O)c(OC)c2)ccc1O [Compound 4]
label 1
O=C(/C=C/c1ccc(O)cc1)C(CCCN1C(=O)c2ccccc2C1=O)C(=O)/C=C/c1ccc(O)cc1 [Compound 3]
label 1

Field: next molecule
Kindly determine if pGa (−log[Ga^3+]free) recorded for O=C(O)CCC(C(=O)/C=C/c1ccc(O)cc1)C(=O)/C=C/c1ccc(O)cc1 [Compound 6] is above or exactly 20.
label 0

====

EXPERIMENT_DESCRIPTION: Spectrophotometric pH titrations of ligands (protonation constants, pKa)
Assay type: physicochemical
PROTOCOL_CONDITIONS: aqueous solution (methanol stock diluted in water), 298 K, calculated from logβ values; read-out: pKa4
QUANTITY_NAME: pKa

Batch of 2 compounds: report pKa for each.
1. COc1cc(/C=C/C(=O)C(CCC(=O)O)C(=O)/C=C/c2ccc(O)c(OC)c2)ccc1O
2. O=C(O)CCC(C(=O)/C=C/c1ccc(O)cc1)C(=O)/C=C/c1ccc(O)cc1

1. 12.2
2. 11.4

====

EXPERIMENT_DESCRIPTION: Spectrophotometric pH titrations of ligands (protonation constants, pKa)
Format: physicochemical
PROTOCOL_CONDITIONS: 298 K, HypSpec, spectrophotometric data
Exercise: for every item that follows, state its recorded logβ012 overall protonation constant.

The cases that follow already have their logβ012 overall protonation constant on record.
O=C(O)CCC(C(=O)/C=C/c1ccc(O)cc1)C(=O)/C=C/c1ccc(O)cc1
21.12 (6)
COc1cc(/C=C/C(=O)C(CCC(=O)O)C(=O)/C=C/c2ccc(O)c(OC)c2)ccc1O
21.61 (5)
COc1cc(/C=C/C(=O)C(CCCN2C(=O)c3ccccc3C2=O)C(=O)/C=C/c2ccc(O)c(OC)c2)ccc1O
20.44 (6)

In the following, a different compound is considered.
Given the compound `O=C(/C=C/c1ccc(O)cc1)C(CCCN1C(=O)c2ccccc2C1=O)C(=O)/C=C/c1ccc(O)cc1` , what is its reported logβ012 overall protonation constant?
20.29 (2)

====

Assign pKa to each entry below.
EXPERIMENT_DESCRIPTION: Spectrophotometric pH titrations of ligands (protonation constants, pKa)
Assay type: physicochemical
PROTOCOL_CONDITIONS: aqueous solution (methanol stock diluted in water), 298 K, calculated from logβ values; * = keto–enol moiety dissociation; read-out: pKa1
Numbers only.

Here is how some compounds turned out for pKa.
O=C(/C=C/c1ccc(O)cc1)C(CCCN1C(=O)c2ccccc2C1=O)C(=O)/C=C/c1ccc(O)cc1 [Compound 3]
8.55
COc1cc(/C=C/C(O)=C/C(C)=O)ccc1OCCCBr [Compound 2]
10.9

Now for a further compound.
Form field: reported pKa of COc1cc(/C=C/C(=O)C(CCCN2C(=O)c3ccccc3C2=O)C(=O)/C=C/c2ccc(O)c(OC)c2)ccc1O [Compound 4]
9
